Tested on: HCT-15 colon
experimental.details: NCI tumour cell line growth inhibition, 48 h; in the data active means GI50 below about 0.43 µM; inactive means the rest
Form entry, call: pick from active, inactive

Some solved entries appear below for comparison.
molecule	study.system	category
Cc1ccc(-n2nnnc2-c2cnc(N3CCOCC3)nc2-c2cccc(C(F)(F)F)c2)cc1	HCT-15 colon	inactive
CCCCCCCCCCCCCC[n+]1ccc(C)cc1	HCT-15 colon	inactive
COc1cc(C)c2sc3ccccc3c(=O)c2c1NCCN(C)C	HCT-15 colon	inactive
O=C1N(Cc2ccccc2Cl)c2ccccc2C12NN=C(c1cccc(Cl)c1)S2 (centres undefined)	HCT-15 colon	inactive
NC(CSSCC(N)C(=O)O)C(=O)O (centres undefined)	HCT-15 colon	inactive

Input line: # fetch the recorded call for COc1cnc2c(c1)C(=O)c1c-2n(CCCN2CCC(O)CC2)c(=O)c2cc(Cl)ccc12 here
Output line: inactive

Input line: # fetch the recorded call for NC1(Cc2ccc(Cl)cc2)CCN(c2ncnc3[nH]ccc23)CC1 here
Output line: inactive

Input line: # fetch the recorded call for COc1ccc(-c2csc(NC(=O)CN3CCN(c4cc5c(cc4F)c(=O)c(C(=O)O)cn5C4CC4)CC3)n2)cc1 here
Output line: inactive

Input line: # fetch the recorded call for N#CC(C#N)=C/C=C(\Sc1ccc(F)cc1Cl)c1ccc(Cl)cc1 here
Output line: active

====

Catalogue of molecules with associated GI50
Tested on: IGROV1 ovarian
experimental.details: NCI tumour cell line growth inhibition, 48 h

Would you please look over these solved cases?
COc1ccc(CCN2CCC(CN(C)Cc3cnn(-c4ccccc4)c3)CC2)cc1 25.6 µM
CCCCCCNCc1cc(C(C)(C)C)cc(CNCCCCCC)c1O 1.76 µM
CCSC[C@@H]1C[C@](O)(c2ccc(F)cc2)[C@@H](c2ccc(F)cc2)O1 14.5 µM
COc1cc(Cl)cc(-c2nn(-c3cccc(NC(=O)Nc4ccc(Cl)c(Cl)c4)c3)cc2-c2ccncc2)c1 4.35 µM

Item: O=[N+]([O-])c1cc([N+](=O)[O-])c(Cl)cc1Cl | GI50: 1.17 µM

====

Catalogue of compounds with associated TGI
Tested on: NCI-H226 lung
experimental.details: NCI tumour cell line growth inhibition, 48 h

Would you please look over these solved cases?
compound	TGI
Cc1c2c(n(CC(c3ccccc3)c3ccccc3)c1C)NN=C(C#N)S2(=O)=O	> 100 µM
O=C1CCCCC12CCC/C2=N\O (configuration not stated)	> 100 µM
COC(=O)[C@H](Cc1cn(C)cn1)NC(=O)[C@H](C)NC(=O)Nc1cc(C(F)(F)F)cc(C(F)(F)F)c1	> 10 µM
O=C1N(Cc2ccccc2Cl)c2ccccc2C12NN=C(c1cccc(Cl)c1)S2 (configuration not stated)	2.86 µM
COc1cc2c(/C=C3/C(=O)Nc4ccc(Cl)cc43)c(Cl)[nH]c2cc1C	13.3 µM

The measured TGI that CCC1(CN(C)C)CC/C(=C\c2ccc(OC)c(OC)c2)C1=O (configuration not stated) showed for NCI-H226 lung is > 100 µM

The measured TGI that O=C(NCCCl)SCCO showed for NCI-H226 lung is > 100 µM

====

System: SF-295 CNS
experimental.details: NCI tumour cell line growth inhibition, 48 h
endpoint: TGI (µM)
Write the answer as a number in µM, unit excluded.

Would you please look over these solved cases?
compound	study.system	endpoint	recorded.number
COc1ccc(C(=O)C#Cc2c[nH]c(=O)[nH]c2=O)cc1	SF-295 CNS	TGI	96.2
C/C(=N\Nc1nc2ccccc2s1)c1cc2ccccc2cn1	SF-295 CNS	TGI	19.3
O=C1c2cccnc2C(=O)c2c1c(C(=O)OCCCN1CCCCC1)c1ccccn21	SF-295 CNS	TGI	0.0383

Item: COC1(CC[C@@H](C)COC2OC(CO)C(O)C(O)C2O)O[C@H]2C[C@H]3[C@@H]4CC=C5C[C@@H](OC6OC(CO)C(O)C(OC7OC(CO)C(O)C(O)C7O)C6OC6OC(C)C(O)C(O)C6O)CC[C@]5(C)[C@H]4CC[C@]3(C)[C@H]2[C@@H]1C (stereo partly drawn) | TGI: 11.3

====

Test system: HOP-62 NSCLC
experimental.details: NCI tumour cell line growth inhibition, 48 h; in the data active = GI50 below about 0.43 µM; inactive = the rest
Form entry, call: pick from active, inactive

Some solved entries appear below for comparison.
compound	study.system	category
Cc1[nH]c2cc(F)ccc2c1-c1nc2c3cccnc3c3ncccc3c2[nH]1	HOP-62 NSCLC	active
CN(C)c1ccc(/C=N/S(=O)(=O)c2ccc(-n3c(-c4ccccc4)nc4c(Br)cc(Br)cc4c3=O)cc2)cc1	HOP-62 NSCLC	inactive
O=C1/C(=C/c2ccc(O)cc2)COc2ccc(O)c(O)c21	HOP-62 NSCLC	inactive
Cn1cc(C2=C(Nc3ccccc3)C(=O)NC2=O)c2ccccc21	HOP-62 NSCLC	inactive
O=C1CC/C(=C/COc2cc(=O)oc3ccccc23)O1	HOP-62 NSCLC	inactive
COc1cc(Cl)cc(-c2nn(-c3cccc(NC(=O)Nc4ccc(Cl)c(Cl)c4)c3)cc2-c2ccncc2)c1	HOP-62 NSCLC	inactive
COc1cc(C)c2sc3ccccc3c(=O)c2c1NCCN(C)C	HOP-62 NSCLC	inactive
CC1SC2(CCCCC2)N(NC(=O)c2[nH]c3ccc(Br)cc3c2-c2ccccc2)C1=O (configuration not stated)	HOP-62 NSCLC	inactive
COc1ccc(CCN2CCC(CN(C)Cc3cnn(-c4ccccc4)c3)CC2)cc1	HOP-62 NSCLC	inactive
CN1CCN(c2nc(-c3csc(-c4cccs4)n3)cc3ccccc23)CC1	HOP-62 NSCLC	inactive

Input line: # fetch the recorded call for CCCCOC1OC(COC(=O)C(C)C)C(OC(=O)C(C)C)C(O)C1OC1OC(C)C(OC(=O)CCC)C(OC(=O)C(C)C)C1O (configuration not stated) here
Output line: inactive

Input line: # fetch the recorded call for CN(CCC(=O)/C(=C\c1ccccc1)c1ccc(Cl)cc1)Cc1ccccc1 here
Output line: inactive

====

Catalogue of compounds with associated TGI
Tested on: RPMI-8226 leukemia
experimental.details: NCI tumour cell line growth inhibition, 48 h

Would you please look over these solved cases?
compound	result
Cc1cccc(CC(Cc2ccc(C)cc2C(=O)O)C(=O)O)c1 (configuration not stated)	> 100 µM
CC([O-])=C1C(=O)c2ccccc2C1=O.CC([O-])=C1C(=O)c2ccccc2C1=O.CC[O-].CC[O-].[Ti+4]	> 100 µM
CC(=O)OCC1OC(n2c(Br)nc3c2c(=O)n(C)c(=O)n3C)C(OC(C)=O)C1OC(C)=O (configuration not stated)	95.6 µM
C=C1C(=O)O[C@H]2C[C@@H]1[C@@H](O)[C@H](O)[C@@H](C)CCCC(C)=CCC[C@@]2(C)O	45.3 µM
O=C(Cn1c(C(=O)c2ccccc2)nc2ccccc21)c1ccccc1	> 100 µM
O=c1cccc(-c2cccc(=O)[nH]2)[nH]1	> 100 µM

Next:
The measured TGI that Cc1cc(Cl)ccc1C(=O)c1ccc2ccccc2c1C(=O)O showed for RPMI-8226 leukemia is > 100 µM

====

Test system: NCI-H23 lung
experimental.details: NCI tumour cell line growth inhibition, 48 h; in the data active = GI50 below about 0.43 µM; inactive = the rest
Form entry, call: pick from active, inactive

Some solved entries appear below for comparison.
compound	study.system	category
Nc1nc(N)c2nc3c(nc2n1)CCCCCCCCCC3	NCI-H23 lung	inactive
O=C1c2cccnc2C(=O)c2c1c(C(=O)OCCCN1CCCCC1)c1ccccn21	NCI-H23 lung	active
NC1(Cc2ccc(Cl)cc2)CCN(c2ncnc3[nH]ccc23)CC1	NCI-H23 lung	inactive
CC(=O)O[C@H]1CC[C@@]2(C)C(=C/C(=N/OCCN3CCCC3)[C@H]3[C@@H]4CC[C@H](OC(C)=O)[C@@]4(C)CC[C@@H]32)C1	NCI-H23 lung	inactive

Now consider the entry below.
Input line: # fetch the recorded call for CN1CCN(c2nc(-c3csc(-c4cccs4)n3)cc3ccccc23)CC1 here
Output line: inactive

====

Catalogue of molecules with associated TGI
Test system: LXFL 529 NSCLC
experimental.details: NCI tumour cell line growth inhibition, 48 h
Write the answer as a number in µM, unit excluded.

Cc1c2c(c(C)c3c1[nH]c1ccccc13)CN(C)CC2 28.2

Next:
The measured TGI that CCCCCCCCCCCc1c(O)c(=O)c2c(oc3c(=O)c(CCCCCCCCCCC)c(O)c(=O)c3n2-c2ccc(N(C)C)cc2)c1=O showed for LXFL 529 NSCLC is 47.2

====

Tested on: HT29 colon
experimental.details: NCI tumour cell line growth inhibition, 48 h
endpoint: TGI

Would you please look over these solved cases?
molecule	TGI
NC(=O)c1sc(-n2cnc3cc(C(F)(F)F)ccc32)cc1OCc1ccccc1Br	> 25 µM
COc1cc(C(C)O)c[n+](CCC2CNc3ccccc32)c1 (stereo not drawn)	> 100 µM
CCCCCCCCCCCCCC[n+]1ccc(C)cc1	1.82 µM
COc1cc(Cl)cc(-c2nn(-c3cccc(NC(=O)Nc4ccc(Cl)c(Cl)c4)c3)cc2-c2ccncc2)c1	9.07 µM
O=C(Cn1c(C(=O)c2ccccc2)nc2ccccc21)c1ccccc1	> 31.6 µM

Item: CC(=O)OCC1OC(n2c(Br)nc3c2c(=O)n(C)c(=O)n3C)C(OC(C)=O)C1OC(C)=O (stereo not drawn) | TGI: > 100 µM

Item: CCSC[C@@H]1C[C@](O)(c2ccc(F)cc2)[C@@H](c2ccc(F)cc2)O1 | TGI: 27.7 µM

Item: O=C(Nc1ccc(S(=O)(=O)/N=c2\ncccn2C(=O)C(C(F)(F)F)C(F)(F)F)cc1)C(C(F)(F)F)C(F)(F)F | TGI: > 100 µM

Item: CC1=C(C)CC2(C=C(C(C)(C)C)C(=O)C(C(C)(C)C)=C2)SC1 | TGI: 43 µM

Item: CN(CCC(=O)/C(=C\c1ccccc1)c1ccc(Cl)cc1)Cc1ccccc1 | TGI: 5.2 µM
